assaySystem: human recombinant caspase-3 (Homo sapiens, UniProt P42574)
Sequence (P42574 29-175 limits assumed): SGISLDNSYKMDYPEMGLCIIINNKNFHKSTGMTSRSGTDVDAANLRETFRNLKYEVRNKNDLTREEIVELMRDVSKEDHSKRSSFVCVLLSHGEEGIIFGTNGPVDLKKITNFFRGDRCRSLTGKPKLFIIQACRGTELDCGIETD
Sequence (P42574 176-277 limits assumed): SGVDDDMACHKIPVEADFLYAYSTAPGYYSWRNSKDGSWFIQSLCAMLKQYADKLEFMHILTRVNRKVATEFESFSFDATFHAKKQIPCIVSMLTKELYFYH
protocolDetails: In vitro high throughput caspase-3 assay
conditionSet: calculated from IC50 according to Equation 1; read-out: Ki(app)
Experimental: Purified Human recombinant caspase-3, fluorescence labeled substrate (Acetyl-Asp-Glu-Val-Asp-7-amino-4-trifluoromethyl coumarin), and known inhibitor (Z-Asp-Glu-Val-Asp-fluoromethyl ketone) can be purchased from Sigma Chemical Co. (St. Louis, Mo.). […] Each well on the 96 well plate contains the above reaction buffer plus 55 μM fluorescence labeled substrate, 0.125 μg caspase-3, and 20-250 μM test compound. […] One reading is taken the next morning as a final measurement. […]
Criterion: Ki strictly under 1 µM. Met: fulfilled. Not met: not fulfilled.

molecule: O=C1C(c2ccc(O)c(O)c2)=C(O)C(=O)c2c(O)cc(O)cc21 [cpi0136.0010]
category: not fulfilled
//
molecule: O=C(O)c1c(O)c2c(c(O)c1Cl)C(=O)c1ccccc1C2=O [cpi0136.0001]
category: fulfilled
//
molecule: O=C1C=CC(=O)c2ccccc21 [cpi0126]
category: fulfilled
//
molecule: Cc1cc(C(=O)NN)c2cc(Br)ccc2n1 [cpi0157.C3]
category: not fulfilled
//
molecule: COc1c(C)c([N+](=O)[O-])c(O)c2c1C(=O)c1ccccc1C2=O [cpi0136.0024]
category: not fulfilled
//
molecule: O=C1c2ccccc2C(=O)c2c1cc(S(=O)(=O)O)c(O)c2O [cpi0136.0005]
category: not fulfilled
//
molecule: Nc1ccc(O)c2c1C(=O)c1ccccc1C2=O [cpi0136.0007]
category: not fulfilled
//
molecule: O=C(COc1cc(O)c2c(=O)cc(-c3ccccc3)oc2c1)OCc1ccccc1 [cpi0136.0025]
category: not fulfilled
//
molecule: O=C1C=CC(=NNc2cc([N+](=O)[O-])cc([N+](=O)[O-])c2)c2cccc(O)c21 [cpi0136.0008]
category: fulfilled
//
molecule: O=C1C(Br)=CC(=O)c2c(O)cccc21 [cpi0141]
category: not fulfilled
//
molecule: O=C(O)CN(CC(=O)O)Cc1cc2c(c(O)c1O)C(=O)c1ccccc1C2=O [cpi0136.0009]
category: not fulfilled
//
molecule: O=C(O)C1Cc2c([nH]c3ccccc23)C(c2ccncc2)N1 (centres unmarked) [cpi0190]
category: fulfilled
//
molecule: Cc1ccc2[nH]c3c(cc(O)c4c(=O)c5ccccc5c(=O)c43)oc2c1 [cpi0136.0017]
category: not fulfilled
//
molecule: O=C(O)CCNc1ccc(O)c2c1C(=O)c1ccccc1C2=O [cpi0136.0012]
category: not fulfilled
//
molecule: O=C1C(Cl)=C(Cl)C(=O)c2ccccc21 [cpi0128]
category: not fulfilled
//
molecule: O=C1C(Br)=C(Br)C(=O)c2c1ccc(Br)c2O [cpi0139]
category: not fulfilled
//
molecule: O=C1C(Br)=C(Br)C(=O)c2c(O)c(Br)c(Br)c(O)c21 [cpi0140]
category: fulfilled
//
molecule: NC(=O)NN=C1C=CC(=O)c2c(O)cccc21 [cpi0136.0004]
category: fulfilled
//
molecule: O=C1C=CC(=NNc2ccc([N+](=O)[O-])cc2[N+](=O)[O-])c2cccc(O)c21 [cpi0136.0020]
category: not fulfilled
//
molecule: N#CC1=C(N)SC(N)=C(C#N)C1c1cccc(F)c1 [cpi0157.F9]
category: not fulfilled

----------
assaySystem: papain (Carica papaya, UniProt P00784)
Sequence (P00784 134-345): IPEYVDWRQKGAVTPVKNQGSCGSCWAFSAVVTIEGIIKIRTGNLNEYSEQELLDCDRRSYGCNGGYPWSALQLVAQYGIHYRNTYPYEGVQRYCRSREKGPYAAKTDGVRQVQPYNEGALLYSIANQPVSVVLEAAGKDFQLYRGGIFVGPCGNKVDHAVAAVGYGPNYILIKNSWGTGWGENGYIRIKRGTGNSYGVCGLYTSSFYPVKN
protocolDetails: Cross-reactivity protease inhibition assay (QuantiCleave), papain
Type: biochemical
conditionSet: ratio Abs450nm with inhibitor / without inhibitor; 100 μM compound

compound: O=C1C=CC(=O)c2c(O)ccc(O)c21
Papain Activity: 0.505
--
compound: CC(=O)N[C@@H](CC(C)C)C(=O)N[C@@H](CC(C)C)C(=O)N[C@H](C=O)CCCNC(=N)N [Leupeptin, leupeptin, reference compound]
Papain Activity: 0.095
--
compound: CC(C)=CCC1=C(O)C(=O)c2ccccc2C1=O
Papain Activity: 0.897
--
compound: O=c1cc(-c2ccccc2)oc2cc(O)cc(O)c12
Papain Activity: 0.445

----------
pKi: −log10 of the molar value.
Recorded pKi values (Human Rhinovirus serotype 1A 3C Protease (Human rhinovirus 1A, UniProt P23008)) are given below.

molecule: O=C1C(Br)=C(Br)C(=O)c2c1ccc(Br)c2O
assaySystem: Human Rhinovirus serotype 1A 3C Protease (Human rhinovirus 1A, UniProt P23008)
Sequence (P23008 1515-1697): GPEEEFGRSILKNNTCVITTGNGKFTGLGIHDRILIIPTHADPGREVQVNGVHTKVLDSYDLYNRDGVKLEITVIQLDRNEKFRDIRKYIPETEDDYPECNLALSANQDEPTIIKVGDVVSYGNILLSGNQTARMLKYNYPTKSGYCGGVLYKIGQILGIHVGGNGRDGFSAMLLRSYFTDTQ
pKi: 3.81
--
molecule: O=C1C(Br)=CC(=O)c2c(O)cccc21
assaySystem: Human Rhinovirus serotype 1A 3C Protease (Human rhinovirus 1A, UniProt P23008)
pKi: 4.14
--
molecule: CCn1cc(C(=O)O)c(=O)c2ccc(C)nc21 [cpi0176, nalidixic acid, reference compound]
assaySystem: Human Rhinovirus serotype 1A 3C Protease (Human rhinovirus 1A, UniProt P23008)
pKi: 3.71
--
molecule: O=C1C=CC(=O)c2ccccc21
assaySystem: Human Rhinovirus serotype 1A 3C Protease (Human rhinovirus 1A, UniProt P23008)
pKi: 3.29
--
molecule: O=C1C=CC(=O)c2c(O)ccc(O)c21
assaySystem: Human Rhinovirus serotype 1A 3C Protease (Human rhinovirus 1A, UniProt P23008)
pKi: 3.51
--
molecule: CC1=CC(=O)c2ccccc2C1=O
assaySystem: Human Rhinovirus serotype 1A 3C Protease (Human rhinovirus 1A, UniProt P23008)
pKi: 3.62

----------
assaySystem: human recombinant caspase-3 (Homo sapiens, UniProt P42574)
protocolDetails: In vitro high throughput caspase-3 assay
conditionSet: fixed substrate concentration of 55 μM; inhibitors 75 to 0.067 μM in duplicate
pIC50: −log10 of the molar value.
Each record here notes measured pIC50.

chemicalString: O=C(O)CCNc1ccc(O)c2c1C(=O)c1ccccc1C2=O
pIC50: 5.11
--
chemicalString: Nc1ccc(O)c2c1C(=O)c1ccccc1C2=O
pIC50: 4.95
--
chemicalString: Cc1ccc2[nH]c3c(cc(O)c4c(=O)c5ccccc5c(=O)c43)oc2c1
pIC50: 3.98
--
chemicalString: N#CC1=C(N)NC(SCc2ccccc2)=C(C#N)C12CCCC2
pIC50: 4.04
